# Target Of Assay: PIK3CA (Homo sapiens, UniProt P42336)
# Construct: endogenous in cells; host or cells: Jurkat cell lysate
# Sequence (P42336 whole entry): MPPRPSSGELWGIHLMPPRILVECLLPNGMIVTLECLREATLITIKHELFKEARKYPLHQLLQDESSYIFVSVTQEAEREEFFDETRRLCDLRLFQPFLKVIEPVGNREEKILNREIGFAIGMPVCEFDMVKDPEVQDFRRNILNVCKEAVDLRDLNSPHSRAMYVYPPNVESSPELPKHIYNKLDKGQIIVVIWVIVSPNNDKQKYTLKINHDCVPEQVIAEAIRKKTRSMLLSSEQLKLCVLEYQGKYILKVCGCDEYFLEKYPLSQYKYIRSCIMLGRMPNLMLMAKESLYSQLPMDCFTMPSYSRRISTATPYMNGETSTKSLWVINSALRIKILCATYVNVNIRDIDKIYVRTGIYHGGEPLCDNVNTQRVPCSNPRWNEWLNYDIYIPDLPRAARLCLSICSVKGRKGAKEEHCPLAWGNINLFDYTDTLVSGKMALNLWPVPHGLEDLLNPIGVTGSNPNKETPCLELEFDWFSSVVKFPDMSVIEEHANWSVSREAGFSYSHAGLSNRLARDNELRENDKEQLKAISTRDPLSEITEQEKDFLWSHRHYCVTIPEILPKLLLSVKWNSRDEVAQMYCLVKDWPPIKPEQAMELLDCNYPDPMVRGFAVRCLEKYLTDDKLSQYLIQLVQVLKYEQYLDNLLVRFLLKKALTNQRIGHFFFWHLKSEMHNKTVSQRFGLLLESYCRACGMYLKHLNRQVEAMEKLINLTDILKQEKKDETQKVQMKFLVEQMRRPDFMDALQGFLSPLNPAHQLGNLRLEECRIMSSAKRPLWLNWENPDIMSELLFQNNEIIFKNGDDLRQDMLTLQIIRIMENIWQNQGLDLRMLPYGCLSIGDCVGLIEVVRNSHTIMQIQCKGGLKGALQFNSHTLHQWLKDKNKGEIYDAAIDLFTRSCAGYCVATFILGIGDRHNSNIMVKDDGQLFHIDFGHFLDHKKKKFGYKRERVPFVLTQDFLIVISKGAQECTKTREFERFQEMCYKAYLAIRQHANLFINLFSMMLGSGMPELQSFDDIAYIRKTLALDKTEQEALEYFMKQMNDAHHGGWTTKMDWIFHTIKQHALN
# Sequence (P27986 whole entry partner): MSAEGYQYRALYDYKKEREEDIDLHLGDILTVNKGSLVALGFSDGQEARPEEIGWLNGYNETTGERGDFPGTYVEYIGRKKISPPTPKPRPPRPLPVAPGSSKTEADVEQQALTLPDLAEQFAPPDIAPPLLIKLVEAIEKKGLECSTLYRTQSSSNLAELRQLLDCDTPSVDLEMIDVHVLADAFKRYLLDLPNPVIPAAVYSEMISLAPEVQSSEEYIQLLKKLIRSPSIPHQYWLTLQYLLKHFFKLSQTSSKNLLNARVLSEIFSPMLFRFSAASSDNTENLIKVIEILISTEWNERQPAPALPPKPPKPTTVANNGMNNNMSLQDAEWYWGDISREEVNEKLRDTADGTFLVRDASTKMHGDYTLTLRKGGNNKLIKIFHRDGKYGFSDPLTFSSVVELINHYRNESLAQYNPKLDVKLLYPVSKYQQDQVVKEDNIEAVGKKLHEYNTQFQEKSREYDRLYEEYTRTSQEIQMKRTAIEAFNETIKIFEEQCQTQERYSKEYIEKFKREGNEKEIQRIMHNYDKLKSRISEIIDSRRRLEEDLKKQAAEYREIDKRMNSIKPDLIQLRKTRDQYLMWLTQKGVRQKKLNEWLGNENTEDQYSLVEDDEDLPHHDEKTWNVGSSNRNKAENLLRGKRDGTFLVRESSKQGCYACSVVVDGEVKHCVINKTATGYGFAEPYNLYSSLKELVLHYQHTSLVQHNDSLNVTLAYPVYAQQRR
# Experiment Description: In vitro ELISA target engagement assay for PIK3CA in Jurkat cellular lysate (competition with PIK3CA Biotin Probe)
# Assay type: binding
# Assay Context: 1 hour at rt, then 500 nM PIK3CA Biotin Probe, read-out: Elisa Target Engagement Assay (TE50)
pIC50: −log10 of the molar value.
Experimental Endpoint: pIC50

COc1ccc(S(=O)(=O)N2CCC(F)(C(=O)N[C@H](C)/C=C\S(C)(=O)=O)CC2)c(-c2ccc(F)cc2Cl)c1 [Compound 27] :: 6.35
C[C@H](/C=C\S(C)(=O)=O)NC(=O)[C@@]1(F)CCCN(C(=O)[C@H]2CN(CC(F)(F)F)C[C@H]2c2cc(F)ccc2Cl)CC1 (single isomer, unassigned) [Compound 166] :: 6.52
C[C@@H](/C=C\S(C)(=O)=O)NC(=O)C1(F)CCN(S(=O)(=O)c2ccc(Cl)cc2-c2cccc(OC3CCC3)c2)CC1 [Compound 263] :: 6.00
C[C@H](/C=C/C(=O)N1CC(F)(F)C1)NC(=O)[C@]1(F)CCN(S(=O)(=O)c2ccc(C#N)cc2-c2ccccc2Cl)[C@H](C)C1 [Compound 154] :: 6.72

(I) C[C@H](/C=C/C(=O)N1CC(F)(F)C1)NC(=O)C1(F)CCN(S(=O)(=O)c2cnc(C(F)(F)F)cc2-c2ccccc2Cl)CC1 [Compound 213]
(II) C[C@H](/C=C\S(C)(=O)=O)NC(=O)C1(F)CCN(S(=O)(=O)c2cn(C)c(=O)cc2-c2ccccc2Cl)CC1 [Compound 274]
# return whichever of I and II has the smaller pIC50 Select an item and report its label.
II

// provenance: patent US20250026721A1
